Target: T1, SIRP-α cynomolgus (cynomolgus, UniProt A0A2K5VYQ9 31-148)
T1 construct: Soluble analyte in SPR; also called cynomologous monkey SIRP-α
T1 sequence: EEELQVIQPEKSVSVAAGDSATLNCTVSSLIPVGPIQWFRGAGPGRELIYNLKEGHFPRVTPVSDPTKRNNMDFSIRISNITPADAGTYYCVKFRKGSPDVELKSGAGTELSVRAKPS
Assay: SPR, antibody on GLC chip, SIRP as analyte
reported-property: Kd (nM)
Express it in nM; write the number only.

Some solved entries appear below for comparison.
>  <binder>
Anti-SIRP-α antibody 119, light chain wt, heavy chain Mut (antibody, V domains shown, Whole antibody; Heavy chain mut = D1E, E43K, L112Q, M34V) VH: EVQLLESGGGVVQPGGSLRLSCAASGFSFSNFAVTWVRQAPGKGLEWVSTIGSGDTYYADSVKGRFTISRDNSKNTLYLQMNSLRAEDTAVYYCAKDSTVSWSGDFFDYWGQGTLVTVSS VL: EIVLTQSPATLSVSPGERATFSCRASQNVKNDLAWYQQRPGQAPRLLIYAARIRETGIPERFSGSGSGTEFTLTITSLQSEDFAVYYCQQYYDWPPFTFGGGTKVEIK

>  <measure-unit>
nM

>  <Kd>
0.16

$$$$
>  <binder>
Anti-SIRP-α antibody 119, light chain wt, heavy chain wt (antibody, V domains shown, Whole antibody (FreeStyle 293-FS, protein A purified)) VH: EVQLLESGGGVVQPGGSLRLSCAASGFSFSNFAMTWVRQAPGEGLEWVSTIGSGDTYYADSVKGRFTISRDNSKNTLYLQMNSLRAEDTAVYYCAKDSTVSWSGDFFDYWGLGTLVTVSS VL: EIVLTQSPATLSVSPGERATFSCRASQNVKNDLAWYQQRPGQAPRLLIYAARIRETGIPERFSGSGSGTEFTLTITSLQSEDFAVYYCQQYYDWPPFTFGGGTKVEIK

>  <measure-unit>
nM

>  <Kd>
0.11

$$$$

# input Requested read-out: Kd. Entry: Anti-SIRP-α antibody 135, light chain wt, heavy chain Mut (antibody, V domains shown, Whole antibody; Heavy chain mut = D1E, R13Q, E16G, M34V, E43K, L112Q) VH: EVQLVESGGGVVQPGGSLRLSCAASGFSFSIYAVSWVRQAPGKGLEWVSTIGADDTYYADSVKGRFTISRDNSKNTLYLQMNSLRAEDTAVYYCAKDSTVGWSGDFFDYWGQGTLVTVSS VL: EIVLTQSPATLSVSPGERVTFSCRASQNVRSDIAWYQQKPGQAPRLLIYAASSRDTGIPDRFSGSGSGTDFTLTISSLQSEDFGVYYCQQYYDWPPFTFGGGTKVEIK
# output 0.13
